Where do these numbers come from? They come from patent US20240174641A1.

# System: dog STING (dSTING)
# ASSAY SUMMARY: Dog differential scanning fluorimetry (DSF) assay, thermal shift of dog STING protein
# Format: binding
# CONDITION CONTEXT: DSF (dDSF); 100 μM compound, 3 μM dog STING protein; Tm with ligand minus Tm of protein alone
# Method: The protein used for the biophysical experiments was a recombinant dog STING protein comprising its cytosolic cGAMP binding ectodomain. […] Dye fluorescence is quenched in aqueous environment and increases upon association of the dye with the hydrophobic parts of the unfolding protein. […] The inflection point of the curve represents the “melting” temperature of the protein (Tm) which is calculated numerically using the Boltzmann equation. […]
Given measured Delta TM, output MET if it is greater than or equal to 30 °C and NOT MET if not.

# count of solved cases: 5
COMPOUND | TGT | CATEGORY LABEL
Cc1cccc2c(-c3ccc(F)c4nn(C)c(F)c34)nn(-c3ccc(N4C[C@@H]5C[C@H]4C[C@H]5C(=O)O)nc3)c12 (single isomer, unassigned) | dog STING (dSTING) | MET
Cc1cccc2c(-c3cc(F)cc4nn(C)cc34)nn(-c3ccc(N4CCO[C@H](CC(=O)O)C4)nc3)c12 | dog STING (dSTING) | NOT MET
Cc1cccc2c(-c3c(F)ccc4nn(C)cc34)nn(-c3ccc(N4CC5CCC4CC5C(=O)O)nc3)c12 (single isomer, unassigned) [Example 28-2] | dog STING (dSTING) | NOT MET
Cc1cccc2c(-c3c(F)ccc4nn(C)cc34)nn(-c3ccc(N4CC[C@@H](CC(=O)O)C4)nc3)c12 | dog STING (dSTING) | MET
Cc1cccc2c(-c3c(F)cc(F)c4nn(C)cc34)nn(-c3ccc(N4C[C@@H]5[C@H](C4)[C@H]5C(=O)O)nc3)c12 | dog STING (dSTING) | MET

IN: Dear colleague, could you confirm whether CC(=O)N1CCN(c2ccc(-n3nc(-c4c(F)cc(F)c5nn(C)cc45)c4cc(F)cc(C)c43)cn2)CC1 has Delta TM at or above 30 °C?
OUT: NOT MET

----------
# Test system: dog STING (dSTING)
# ASSAY SUMMARY: Dog differential scanning fluorimetry (DSF) assay, thermal shift of dog STING protein
# Format: binding
# CONDITION CONTEXT: DSF (dDSF); 100 μM compound, 3 μM dog STING protein; Tm with ligand minus Tm of protein alone
Delta TM by entry:
// note: answer is a bare numeric in °C

Study these solved cases before continuing.
COMPOUND | Delta TM, °C
Cc1cc(F)cc2c(-c3cccc4nn(C)c(F)c34)nn(-c3ccc(N4C[C@@H]5[C@H](C4)[C@H]5C(=O)O)nc3)c12 | 33.1
Cc1cccc2c(-c3cc(F)cc4nn(C)cc34)nn(-c3ccc(N4C[C@H]5C[C@@H]4C[C@@H]5C(=O)O)nc3)c12 (single isomer, unassigned) | 23.0
Cc1cccc2c(-c3c(F)cc(F)c4nn(C)cc34)nn(-c3ccc(N4CC5CCC4CC5C(=O)O)nc3)c12 (single isomer, unassigned) [Example 48-3] | 35.4

IN: Fill in: Delta TM of Cc1cccc2c(-c3cc(F)cc4nn(C)cc34)nn(-c3ccc(N4CC[C@@H](CC(=O)O)C4)nc3)c12 is ___
OUT: 22.5

IN: Fill in: Delta TM of Cc1cc(F)cc2c(-c3cccc4nn(C)c(F)c34)nn(-c3ccc(N4CCC(C(=O)O)CC4)nc3)c12 is ___
OUT: 33.0

IN: Fill in: Delta TM of Cc1cccc2c(-c3cc(F)cc4nn(C)cc34)nn(-c3ccc(N4CC5CCC4CC5C(=O)O)nc3)c12 (stereo not drawn) is ___
OUT: −0.3
